Ki by entry:
Biological target: recombinant human ALK5 (TGF-βR1) protein (Homo sapiens, UniProt P36897)
Construct: purchased Life Technologies PR9075A
Sequence (P36897 34-503): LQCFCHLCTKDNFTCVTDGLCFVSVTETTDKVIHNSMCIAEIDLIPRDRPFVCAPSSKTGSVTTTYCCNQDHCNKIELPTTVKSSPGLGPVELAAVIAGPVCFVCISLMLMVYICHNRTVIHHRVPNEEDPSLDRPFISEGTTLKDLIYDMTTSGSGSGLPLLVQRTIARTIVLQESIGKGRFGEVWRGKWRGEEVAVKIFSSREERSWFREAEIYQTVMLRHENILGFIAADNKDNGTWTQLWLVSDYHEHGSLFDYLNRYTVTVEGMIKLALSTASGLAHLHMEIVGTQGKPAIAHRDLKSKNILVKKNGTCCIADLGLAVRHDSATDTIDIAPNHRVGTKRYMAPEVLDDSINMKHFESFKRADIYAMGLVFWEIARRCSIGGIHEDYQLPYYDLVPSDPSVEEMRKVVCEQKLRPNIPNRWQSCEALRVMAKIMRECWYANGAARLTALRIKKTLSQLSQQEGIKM
Experiment: Biochemical ALK5 (TGF-βR1) assay to measure pKi (LANCE Ultra ULight kinase assay)
Settings: apparent pKi from pIC50 by Cheng-Prusoff, read-out: ALK5 pKi (converted)
readout_type: Ki

Cc1cccc(-c2n[nH]cc2-c2ccc3ncc(N(C)C4CCN(C(C)C)C4)cc3n2)n1 (racemic): < 0.0316 nM
Cc1nc(-c2n[nH]cc2-c2ccc3ncc(-c4cnn(C[C@H]5CCC[C@H](N)C5)c4)cc3n2)ccc1F (racemic): < 0.0316 nM
CC(C)N1CCN(CCNc2cnc3ccc(-c4c[nH]nc4-c4cccc(C(F)F)n4)nc3c2)CC1: 0.0398 to 0.316 nM
Cc1cccc(-c2n[nH]cc2-c2ccc3ncc(-c4cn[nH]c4-c4cccc(C)n4)cc3n2)n1: 0.398 to 3.16 nM
Cc1cccc(-c2[nH]cnc2-c2ccc3ncc(NCCN4CC5(CC(N)C5)C4)cc3c2)n1: 0.0398 to 0.316 nM
Cc1cccc(-c2n[nH]cc2-c2ccc3ncc(-c4cncs4)cc3n2)n1: < 0.0316 nM
Cc1cccc(-c2[nH]cnc2-c2ccc3ncc(NCCN4CC5(CNC5)C4)cc3c2)n1: 0.0398 to 0.316 nM

Each recorded value in this set is attributed to patent US11590116B2.
